Overview of recorded pKi for various compounds
- assay_system: human GABAA α2β2γ1 receptor (Homo sapiens (Human), UniProt P47869+Q8N1C3)
- assay_protocol: Radioligand binding assay for γ1-containing GABAA subtypes, [3H]RO7239181 competition (α2β2γ1)
- assay_conditions: Ki h-GABAA α2β2γ1, displacement of [3H]RO7239181, membranes of HEK293F cells expressing human receptors, means of two determinations
pKi: −log10 of the molar value.

{"columns": ["line_notation", "pKi"],
 "data": [
  ["C[C@@H]1N=C(c2c(F)cccc2F)c2c(ccc(Cl)c2Cl)-n2nc(C(=O)N3CC(C#N)C3)nc21", 8.48],
  ["C[C@@H]1N=C(c2c(F)cccc2F)c2c(ccc(C(F)(F)F)c2Cl)-n2ncnc21", 7.94],
  ["C[C@@H]1N=C(c2c(F)cccc2F)c2c(ccc(Cl)c2Cl)-n2nc(C(F)F)nc21", 7.92]
]}

The measured values listed here are drawn from patent US12365687B2.
